// reported pIC50 for each item listed
target: JAK2 (Homo sapiens)
Sequence (O60674 whole entry, species assumed): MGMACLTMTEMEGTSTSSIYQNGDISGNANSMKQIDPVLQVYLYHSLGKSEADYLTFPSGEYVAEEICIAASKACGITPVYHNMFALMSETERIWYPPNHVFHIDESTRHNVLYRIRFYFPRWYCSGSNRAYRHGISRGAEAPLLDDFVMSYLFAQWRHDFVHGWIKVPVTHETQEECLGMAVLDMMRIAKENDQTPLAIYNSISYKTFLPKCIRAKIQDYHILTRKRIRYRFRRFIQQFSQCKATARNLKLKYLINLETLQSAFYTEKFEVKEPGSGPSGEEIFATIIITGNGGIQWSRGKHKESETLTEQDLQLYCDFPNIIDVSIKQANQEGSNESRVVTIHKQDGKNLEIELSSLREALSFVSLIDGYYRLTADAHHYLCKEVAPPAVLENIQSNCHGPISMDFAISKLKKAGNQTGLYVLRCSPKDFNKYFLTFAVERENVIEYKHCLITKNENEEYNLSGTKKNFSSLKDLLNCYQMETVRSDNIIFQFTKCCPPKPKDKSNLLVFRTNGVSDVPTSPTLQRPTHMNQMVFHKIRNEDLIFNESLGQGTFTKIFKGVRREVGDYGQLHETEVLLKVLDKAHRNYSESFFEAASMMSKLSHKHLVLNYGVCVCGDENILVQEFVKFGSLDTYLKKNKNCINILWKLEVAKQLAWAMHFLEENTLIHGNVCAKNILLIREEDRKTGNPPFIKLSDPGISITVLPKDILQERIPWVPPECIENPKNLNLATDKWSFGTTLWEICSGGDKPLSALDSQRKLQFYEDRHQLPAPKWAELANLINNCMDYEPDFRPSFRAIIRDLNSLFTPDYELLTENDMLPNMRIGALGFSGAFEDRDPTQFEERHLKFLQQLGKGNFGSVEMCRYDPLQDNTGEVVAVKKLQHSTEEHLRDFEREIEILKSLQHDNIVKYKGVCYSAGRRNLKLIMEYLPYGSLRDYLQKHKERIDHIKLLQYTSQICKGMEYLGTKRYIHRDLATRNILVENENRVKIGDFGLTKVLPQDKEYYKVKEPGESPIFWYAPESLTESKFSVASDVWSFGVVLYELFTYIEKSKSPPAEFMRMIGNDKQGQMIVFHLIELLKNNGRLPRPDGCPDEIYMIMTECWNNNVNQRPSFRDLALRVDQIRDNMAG
pIC50: −log10 of the molar value.

Field: example entries. Status: answers known.
• C[C@@H](O)c1nc2cnc3[nH]ccc3c2n1C1CCN(CC#N)C1 (stereo partly drawn) = 6.00 to 7.00
• CCS(=O)(=O)N1CC(CC#N)(n2cc(-n3c(-c4ccc(CO)o4)nc4cnc5[nH]ccc5c43)cn2)C1 = 7.00 to 8.00
• N#CCCn1cc(-n2c(-c3cccc(O)c3)nc3cnc4[nH]ccc4c32)cn1 = 7.00 to 8.00

Requested read-out pIC50, target or system JAK2 (Homo sapiens), entry N#Cc1ccc(-n2c(-c3ccc(CO)o3)nc3cnc4[nH]ccc4c32)cc1
6.00 to 7.00

Requested read-out pIC50, target or system JAK2 (Homo sapiens), entry O=S(=O)(N1CCC(n2c(-c3ncc[nH]3)nc3cnc4[nH]ccc4c32)C1)C(F)(F)F (stereo not drawn)
7.00 to 8.00

Requested read-out pIC50, target or system JAK2 (Homo sapiens), entry CCC(C(=O)NCC(F)(F)F)N1CC[C@H](n2c([C@@H](C)O)nc3cnc4[nH]ccc4c32)C1 (stereo partly drawn)
6.00 to 7.00

Requested read-out pIC50, target or system JAK2 (Homo sapiens), entry CCS(=O)(=O)N1CC(CC#N)(n2cc(-n3c(-c4ccc(C)o4)nc4cnc5[nH]ccc5c43)cn2)C1
> 8.00

Requested read-out pIC50, target or system JAK2 (Homo sapiens), entry C[C@@H](O)c1nc2cnc3[nH]ccc3c2n1C1CCN(CCC#N)C1 (stereo partly drawn)
6.00 to 7.00

Requested read-out pIC50, target or system JAK2 (Homo sapiens), entry C[C@@H](O)c1nc2cnc3[nH]ccc3c2n1[C@H]1C[C@H](CO)N(CCCC(F)(F)F)C1
6.00 to 7.00

###

biological target: JAK1 (Homo sapiens)
pIC50: −log10 of the molar value.
// reported pIC50 for each item listed

- C[C@@H](O)c1nc2cnc3[nH]ccc3c2n1[C@H]1C[C@H](CO)N(CCCC(F)(F)F)C1: > 8.00
- N#CCn1cc(-n2c(C(F)(F)F)nc3cnc4[nH]ccc4c32)cn1: 7.00 to 8.00

Requested read-out pIC50, target or system JAK1 (Homo sapiens), entry N#CCCN1CCC(n2c(-c3ccc(CO)o3)nc3cnc4[nH]ccc4c32)C1 (centres unmarked)
7.00 to 8.00

Requested read-out pIC50, target or system JAK1 (Homo sapiens), entry C[C@@H](O)c1nc2cnc3[nH]ccc3c2n1C1CCN(S(=O)(=O)c2ccc3ccccc3c2)C1 (some centres unmarked)
6.00 to 7.00

Requested read-out pIC50, target or system JAK1 (Homo sapiens), entry N#C[C@H]1CC[C@H](n2c(-c3ccc(F)cc3)nc3cnc4[nH]ccc4c32)CC1 (stereo in doubt)
7.00 to 8.00

Requested read-out pIC50, target or system JAK1 (Homo sapiens), entry N#CCC(C1CCCC1)n1cc(-n2c(C(F)(F)F)nc3cnc4[nH]ccc4c32)cn1 (centres unmarked)
7.00 to 8.00

Requested read-out pIC50, target or system JAK1 (Homo sapiens), entry N#CCCn1cc(-n2c(-c3ccccc3Cl)nc3cnc4[nH]ccc4c32)cn1
7.00 to 8.00

Requested read-out pIC50, target or system JAK1 (Homo sapiens), entry OCc1ccc(-c2nc3cnc4[nH]ccc4c3n2[C@H]2CCN(CCCC(F)(F)F)C2)o1
7.00 to 8.00

###

JAK1 (Homo sapiens) measurements of pIC50, listed per entry.
pIC50: −log10 of the molar value.

* N#C[C@H]1CC[C@H](n2c(-c3ccc(O)cc3O)nc3cnc4[nH]ccc4c32)CC1 (stereo in doubt) | 7.00 to 8.00
* O=S(=O)(N1CCC(n2c(-c3ncc[nH]3)nc3cnc4[nH]ccc4c32)C1)C(F)(F)F (stereo not drawn) | 7.00 to 8.00
* N#CCN1CCC(n2c(-c3cccc(O)c3)nc3cnc4[nH]ccc4c32)C1 (stereo not drawn) | 7.00 to 8.00

Which pIC50 reading was recorded for the compound C=CC(=O)N1CCC(n2c(-c3ccc(O)cc3O)nc3cnc4[nH]ccc4c32)C1 (stereo not drawn) ?
7.00 to 8.00

###

pIC50: −log10 of the molar value.
JAK1 (Homo sapiens, UniProt P23458) measurements of pIC50, listed per entry.
Sequence (P23458 whole entry, species assumed): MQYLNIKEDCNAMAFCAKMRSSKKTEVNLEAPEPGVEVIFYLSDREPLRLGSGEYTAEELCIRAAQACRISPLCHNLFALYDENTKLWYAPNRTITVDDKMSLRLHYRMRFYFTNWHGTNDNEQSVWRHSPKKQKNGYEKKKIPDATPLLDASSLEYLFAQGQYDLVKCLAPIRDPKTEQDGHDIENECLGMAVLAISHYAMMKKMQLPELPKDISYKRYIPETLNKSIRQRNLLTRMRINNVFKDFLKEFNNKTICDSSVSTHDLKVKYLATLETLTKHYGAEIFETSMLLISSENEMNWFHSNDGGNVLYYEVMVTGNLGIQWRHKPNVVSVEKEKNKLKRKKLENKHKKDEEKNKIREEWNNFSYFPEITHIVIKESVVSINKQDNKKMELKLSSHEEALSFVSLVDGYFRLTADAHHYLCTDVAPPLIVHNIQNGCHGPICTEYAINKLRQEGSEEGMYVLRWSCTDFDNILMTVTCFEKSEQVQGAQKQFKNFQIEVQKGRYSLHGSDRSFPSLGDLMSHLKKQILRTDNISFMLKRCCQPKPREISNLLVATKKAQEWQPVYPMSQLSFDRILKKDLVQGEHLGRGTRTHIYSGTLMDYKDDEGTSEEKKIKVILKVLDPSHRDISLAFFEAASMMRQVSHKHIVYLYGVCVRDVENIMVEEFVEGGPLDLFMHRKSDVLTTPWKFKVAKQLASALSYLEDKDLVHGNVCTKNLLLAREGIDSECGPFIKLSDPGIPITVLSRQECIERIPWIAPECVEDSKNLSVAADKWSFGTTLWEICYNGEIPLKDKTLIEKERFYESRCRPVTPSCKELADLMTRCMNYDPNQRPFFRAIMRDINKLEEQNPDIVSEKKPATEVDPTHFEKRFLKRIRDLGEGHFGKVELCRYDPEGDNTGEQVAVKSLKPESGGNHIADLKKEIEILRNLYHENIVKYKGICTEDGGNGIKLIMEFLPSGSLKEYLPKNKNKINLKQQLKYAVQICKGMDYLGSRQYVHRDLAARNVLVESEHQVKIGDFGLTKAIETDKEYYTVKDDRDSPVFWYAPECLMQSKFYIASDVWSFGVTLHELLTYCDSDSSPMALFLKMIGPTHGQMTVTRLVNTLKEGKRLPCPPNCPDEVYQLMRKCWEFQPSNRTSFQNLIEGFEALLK

Field: example entries. Status: answers known.
* N#CCCn1cc(-n2c(-c3ccccc3F)nc3cnc4[nH]ccc4c32)cn1 | 7.00 to 8.00
* CS(=O)(=O)c1ccc(C2Nc3cnc4[nH]ccc4c3N2c2ccc(C#N)cc2)cc1 (centres unmarked) | 6.00 to 7.00
* CCCS(=O)(=O)N1CCC(n2c(-c3ccc(O)cc3O)nc3cnc4[nH]ccc4c32)C1 (centres unmarked) | 6.00 to 7.00
* C[C@@H](O)c1nc2cnc3[nH]ccc3c2n1C1CCN(S(=O)(=O)c2ccccc2F)C1 (some centres unmarked) | 6.00 to 7.00
* N#CCCn1cc(-n2c(-c3cccs3)nc3cnc4[nH]ccc4c32)cn1 | 6.00 to 7.00

Requested read-out pIC50, target or system JAK1 (Homo sapiens, UniProt P23458), entry C[C@@H](O)c1nc2cnc3[nH]ccc3c2n1C1CCN(C(=O)NCC(F)(F)F)C1 (stereo in doubt)
6.00 to 7.00

Requested read-out pIC50, target or system JAK1 (Homo sapiens, UniProt P23458), entry C[C@@H](O)c1nc2cnc3[nH]ccc3c2n1[C@H]1CCN(CCC(F)(F)C(F)(F)F)C1
> 8.00

Requested read-out pIC50, target or system JAK1 (Homo sapiens, UniProt P23458), entry O=C(C1CC1)N1CCC(n2c(-c3ccc(CO)o3)nc3cnc4[nH]ccc4c32)C1 (centres unmarked)
7.00 to 8.00

Values were extracted from patent US20240383898A1.
